Assay: binders of probe aFST on microarray, primary screen, stem cell growth factor project, biochemical, small-molecule microarray, fluorescence 635/667 (AID 1086);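 also: score merges 667 nm fluorescence with signal-to-noise of each printed compound spot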
Conditions: higher = more signal
RECORDED ENDPOINT: composite z-score

Here's what some known entries look like.
C=C(C)[C@@H]1CC=C(C(O)C2C=CC3C(=O)N(c4ccccc4)C(=O)C3N2Nc2ccccc2F)CC1 (some centres undefined): 1.84
C[N+](C)(C)CCCCCCNC(=O)[C@H]1C[C@H]2C(=O)NCC(=O)N2[C@H]1c1ccc(O)cc1: 0.358
CC(C)(C)OC(=O)CC[C@]1(C(=O)NCc2ccccc2)N=C(c2ccc(OCCCO)cc2)O[C@H]1c1ccccc1CN=[N+]=[N-]: 1.48

## Task Quick one: composite z-score for `O=c1n(-c2ccccc2)c(=O)n2n1CC(COc1ccccc1)=C([C@H](O)CCc1ccccc1)[C@@H]2CO` ?
## Result 0.0915

###

Exercise: state measured composite z-score for each of the compounds provided.
Biological target: Carbonic anhydrase 2 (Homo sapiens) (UniProt P00918)
Assay: CAII small-molecule binders, profiling panel, biochemical, small-molecule microarray, Alexa647-labelled CAII (AID 1122)
Conditions: CAII-A647 binding fluorescence, higher = more signal

COCCCNC(=O)[C@@]1(Sc2ccc(C)cc2)CC(=O)N(C2CCCCC2)[C@@H]1c1ccc(CO)cc1: 0.71
CCCCC=C[C@@H](NC(=O)c1ccc(-c2ccccc2)cc1)c1ccccc1: 0.641

# return composite z-score for each item in the list
1. COC(=O)[C@@]1(Cc2ccccc2N=[N+]=[N-])N=C(c2ccc(OCCCO)cc2)O[C@H]1c1ccccc1N=[N+]=[N-]
2. O=C1O[C@H](c2ccccc2)[C@H](c2ccccc2)N2[C@H]1[C@@H](C(=O)Nc1nc3ccccc3s1)[C@]1(C(=O)Nc3ccc(C#CC4(O)CCCCCC4)cc31)[C@H]2c1ccccc1OCCO
3. COCCCNC(=O)[C@]1(CCS(=O)(=O)c2ccccc2)N=C(c2ccc(OCCCO)cc2)O[C@@H]1c1ccccc1CN=[N+]=[N-]
4. COC(=O)[C@@]1(Cc2ccc(OC)cc2)[C@@H]2C(=CC(=O)[C@H]2CC(=O)C(=O)N(C)C)CN1C(=O)c1ccccc1

## Result
1. 0.355
2. 0.461
3. 0.735
4. 0.777

## Task Give recorded composite z-score with Carbonic anhydrase 2 (Homo sapiens) (UniProt P00918) for the following compound: C=CCC(OC(C)=O)[C@@H]1[C@@H](N(Cc2ccc(-c3ccccc3)cc2)C(=O)Cc2ccc(F)cc2)c2cc(OCCCO)ccc2N1C(=O)Cc1ccc(OC)cc1 (some centres not stated)
## Result 0.207

###

System: Lefty1
Test: Lefty1 binders on small-molecule microarrays, primary screen, biochemical, small-molecule microarray, 635/667 nm fluorescence (AID 1139)
Settings: small-molecule microarray binding, fluorescence 635/667; higher = more signal
Everything with composite z-score lower than 0.3 is False; everything else, including exactly 0.3, is True.

COc1ccc(NC(=O)O[C@H]2[C@H](OC(=O)Nc3ccccc3)[C@@H](OC(=O)Nc3ccccc3)[C@@H](OC)O[C@@H]2CO)cc1: True
CC=CC(O)C1C=CC2C(=O)N(c3ccccc3)C(=O)C2N1Nc1ccccc1F (stereo not drawn): False
C=C(C)C1CCC(C(O)C2C=CC3C(=O)N(C)C(=O)C3N2N2CCCCC2)CC1 (stereo not drawn): True
CC(C)C(=C=CC[C@H](O)c1ccc(OCCO)cc1)C[C@H](O)c1ccccn1: True
CC1=C[C@@]2(CO)C(=O)[C@]3(CO3)[C@@H]1[C@H]1[C@]2(C)C=C(CO)C(=O)[C@]12CO2: True

## Task Decide: is the reported value of composite z-score for O=C1OCCC/C=C\[C@H]2OC34C=CCN(CCN5CCOCC5)C(=O)[C@H]3N(CCCCCCO)C(=O)[C@@H]4C12 (stereo partly drawn) equal to or greater than 0.3?
## Result True

## Task Please indicate if the recorded composite z-score for `CC(C)N1C(=O)c2ccccc2[C@@H](C(=O)NC2CC2)[C@@H]1c1ccc(CO)cc1` meets or exceeds 0.3.
## Result False

## Task Determine whether measured composite z-score meets or exceeds 0.3 for `O[C@@H](Cc1ccccc1)[C@@H](/C=C/C1CC1)N(CC#Cc1ccccc1)Cc1cccc(Cl)c1`
## Result False

###

Test: osmotic lysis modulators in infected erythrocytes, primary screen, PSAC antagonist project, cell-based, P. falciparum Indochina, OD700, 3 h (AID 1156)
Settings: higher = more signal, called active from +8 up or from −8 down
RECORDED ENDPOINT: z-score
One number for each entry.

// each listed molecule needs a value for z-score
1. CCCC[C@@H]1C[C@H]1[C@@H](NC(=O)c1ccccc1)c1ccc(C(F)(F)F)cc1
2. C[N+](C)(C)CCCCCCNC(=O)[C@H]1C[C@H]2C(=O)N[C@@H](Cc3ccccc3)C(=O)N2[C@H]1c1ccc(O)cc1
3. NC(=O)NCC#Cc1ccc2c(c1)[C@]1(C(=O)N2)[C@H](C(=O)O)[C@H]2C(=O)O[C@H](c3ccccc3)[C@H](c3ccccc3)N2[C@@H]1c1ccc(OCCO)cc1
4. COCCOC(=O)N1C(=O)[C@@]2(c3cc(C#CCNC(N)=O)ccc31)[C@H](C(=O)N1CCc3cc(OC)c(OC)cc3C1)[C@H]1C(=O)O[C@H](c3ccccc3)[C@H](c3ccccc3)N1[C@@H]2c1ccccc1OCCO
5. [N-]=[N+]=NCc1ccccc1[C@@H]1OC(c2ccc(OCCCO)cc2)=N[C@]1(CCS(=O)(=O)c1ccccc1)C(=O)NCC(O)CO (some centres undefined)
6. COc1ccc(CN(C2=CC[C@@]3(C(N)=O)C(=O)C(Cl)=C(Cl)C(=O)[C@@]3(C#N)C2)S(=O)(=O)c2ccc(Br)cc2)cc1
7. CC(C)(C)OC(=O)CC[C@]1(C(=O)NCC(O)CO)N=C(c2ccc(OCCCO)cc2)O[C@H]1c1ccccc1 (some centres undefined)
8. C=CC1c2cc(O)c(OC)cc2CCN1Cc1cc2c(cc1Br)OCO2 (centres undefined)

## Result
[0.162, -0.194, 0.643, 0.435, 0.619, -1.94, 2.61, 1.57]

Your task in this section: give z-score for each listed record.
1. CCCCO[C@H]1C[C@H]2C(I)=C[C@@H]1C(=O)[C@]21CO1
2. CC(C)C[C@@H]1NC(=O)[C@@H]2C[C@H](C(=O)NCCCCCN)[C@H](c3ccc(O)cc3)N2C1=O
3. COC(=O)c1nc2oc1CC[C@@H](CO)NC(=O)N(C)Cc1cnnn1C[C@H](Cc1ccccc1)NC2=O
4. OCCCC1=CC(c2ccc(CN3CCCC3)cc2)N(Cc2sc3ccccc3c2Cl)CC1 (centres undefined)
5. CC1CC/C=C\[C@H]2OC34C=CCN(C(C)C)C(=O)[C@H]3N(CCCCCCO)C(=O)[C@@H]4C2C(=O)O1 (some centres undefined)

## Result
1. -0.163
2. -0.302
3. 1.2
4. 0.314
5. -0.987

Please report z-score for every entry that follows.
1. COC(=O)c1c(CC[C@@H](CO)NC(=O)N[C@H](Cn2cc(C3(O)CCCCC3)nn2)C(C)C)oc(C(C)=O)c1C(=O)OC
2. COc1cc2c(cc1OC)CN(C(=O)[C@@H]1[C@H]3C(=O)O[C@H](c4ccccc4)[C@H](c4ccccc4)N3[C@H](c3ccc(OCCO)cc3)[C@@]13C(=O)Nc1ccc(C#CC4(O)CCCCCC4)cc13)CC2
3. CC(C)(C)OC(=O)CC[C@@]1(C(=O)NCc2ccccc2)N=C(c2ccc(OCCCO)cc2)O[C@@H]1c1ccccc1N=[N+]=[N-]
4. COC(=O)C1=CC(CCCO)=CC(C2CC2)N(C)C=C1C(=O)OC (centres undefined)
5. COc1ccc(CCN2C(=O)[C@@]3(Cc4ccccc42)c2ccccc2C(=O)N(Cc2ccccc2OC)[C@H]3c2ccc(CO)cc2)cc1

## Result
1.02
0.785
4.99
0.482
-0.217

Hello, I would appreciate it if you could give z-score for each entry below.
1. NCCCCCCNC(=O)[C@@H]1C[C@@H]2C(=O)N[C@@H](CCCCN)C(=O)N2[C@@H]1c1cccc(OCCO)c1
2. CCCC[C@@H]1C[C@H]1[C@@H](NC(=O)Cc1ccccc1)c1ccc(-c2ccccc2)cc1
3. COC(=O)[C@@]1(Cc2ccc(OC)cc2)[C@H]2c3cc(C(=O)N(C)C)n(C[C@H](O)CO)c3C[C@H]2CN1C(=O)c1ccccc1
4. COC(=O)[C@@]1(Cc2ccc(F)cc2)[C@H]2c3cc(C(=O)N4CCCC4)n(CCN4CNCC4=O)c3C[C@H]2CN1C(=O)c1ccccc1
5. O=C1C2C=CC(C(O)c3ccc(F)cc3)N(n3cnnc3)C2C(=O)N1Cc1ccccc1 (centres undefined)
6. COCCOC(=O)N1C(=O)[C@@]2(c3cc(C#CC4=CCCCC4)ccc31)[C@H](c1ccccc1OCCO)N1[C@H](c3ccccc3)[C@H](c3ccccc3)OC(=O)[C@H]1[C@@H]2C(=O)N1CCCCCCC1
7. COc1ccc([Si](C)(C)[C@@H]2[C@@H](CC(=O)N3Cc4ccccc4C[C@H]3CO)O[C@]3(C(=O)N(C)c4ccccc43)[C@H]2C)cc1
8. COc1ccc(CCNC(=O)[C@@]2(Sc3ccc(C)cc3)CC(=O)N(C3Cc4ccccc4C3)[C@@H]2c2ccc(CO)cc2)cc1

## Result
1: -0.147; 2: 0.249; 3: 1.98; 4: 2.24; 5: 0.987; 6: -0.56; 7: 0.368; 8: -0.0174
